Biological target: T1, CasX variant 515 (synthetic construct)
T1 chain: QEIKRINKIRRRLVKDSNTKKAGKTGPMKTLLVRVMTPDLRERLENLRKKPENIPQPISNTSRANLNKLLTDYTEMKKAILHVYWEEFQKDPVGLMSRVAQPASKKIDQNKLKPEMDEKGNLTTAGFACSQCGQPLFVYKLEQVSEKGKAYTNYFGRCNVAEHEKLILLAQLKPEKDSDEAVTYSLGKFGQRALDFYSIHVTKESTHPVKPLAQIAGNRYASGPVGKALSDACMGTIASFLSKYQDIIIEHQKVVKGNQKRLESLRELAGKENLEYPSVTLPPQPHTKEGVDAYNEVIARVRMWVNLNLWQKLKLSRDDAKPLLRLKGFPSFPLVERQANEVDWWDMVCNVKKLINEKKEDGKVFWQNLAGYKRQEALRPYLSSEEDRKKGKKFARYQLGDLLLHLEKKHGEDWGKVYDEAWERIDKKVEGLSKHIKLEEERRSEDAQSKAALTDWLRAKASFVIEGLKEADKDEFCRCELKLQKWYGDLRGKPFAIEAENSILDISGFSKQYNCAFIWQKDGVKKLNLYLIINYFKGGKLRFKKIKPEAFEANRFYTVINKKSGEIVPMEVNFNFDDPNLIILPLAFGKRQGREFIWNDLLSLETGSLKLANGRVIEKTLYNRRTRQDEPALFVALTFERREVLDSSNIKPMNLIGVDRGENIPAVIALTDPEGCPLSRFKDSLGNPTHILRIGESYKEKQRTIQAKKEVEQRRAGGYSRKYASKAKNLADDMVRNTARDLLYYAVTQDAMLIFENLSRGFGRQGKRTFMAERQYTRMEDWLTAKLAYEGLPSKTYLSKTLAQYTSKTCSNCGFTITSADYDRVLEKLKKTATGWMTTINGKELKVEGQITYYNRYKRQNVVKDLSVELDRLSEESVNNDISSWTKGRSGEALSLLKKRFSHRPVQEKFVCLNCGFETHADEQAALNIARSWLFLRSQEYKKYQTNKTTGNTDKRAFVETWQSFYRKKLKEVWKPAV
Test: cleavage_in_vitro
reported-metric: activity (s⁻¹)

• sgRNA 174.7.9 ; 7.9 target (ssRNA ; dsDNA, 5' amino modifier C6) RNA: ACUGGCGCUUUUAUCUGAUUACUUUGAGAGCCAUCACCAGCGACUAUGUCGUAGUGGGUAAAGCUCCCUCUUCGGAGGGAGCAUCAAAGGUGUAGUACAAGAGAUAGAA DNA 1: TTTCAGTGGGGGTGAATTCAGTGTAGTACAAGAGATAGAAAGACCAGTCCTTGCTGAAAG DNA 2: CTTTCAGCAAGGACTGGTCTTTCTATCTCTTGTACTACACTGAATTCACCCCCACTGAAA = 0.172
• sgRNA 235.7.37 ; 7.37 target (ssRNA ; dsDNA, 5' amino modifier C6) RNA: ACUGGCGCUUCUAUCUGAUUACUCUGAGCGCCAUCACCAGCGACUAUGUCGUAGUGGGUAAAGCCGCUUACGGACUUCGGUCCGUAAGAGGCAUCAGAGGGCCGAGAUGUCUCGCUCCG DNA 1: TGAAGCTGACAGCATTCGGGCCGAGATGTCTCGCTCCGTGGCCTTAGCTGTGCTCGCGCT DNA 2: AGCGCGAGCACAGCTAAGGCCACGGAGCGAGACATCTCGGCCCGAATGCTGTCAGCTTCA = 0.0647
• sgRNA 2.7.37 ; 7.37 target (ssRNA ; dsDNA, 5' amino modifier C6) RNA: UACUGGCGCUUUUAUCUCAUUACUUUGAGAGCCAUCACCAGCGACUAUGUCGUAUGGGUAAAGCGCUUAUUUAUCGGAGAGAAAUCCGAUAAAUAAGAAGCAUCAAAGGGCCGAGAUGUCUCGCUCCG DNA 1: TGAAGCTGACAGCATTCGGGCCGAGATGTCTCGCTCCGTGGCCTTAGCTGTGCTCGCGCT DNA 2: AGCGCGAGCACAGCTAAGGCCACGGAGCGAGACATCTCGGCCCGAATGCTGTCAGCTTCA = 0.0204

Reference source: patent US20250361525
